Target: ΔF508-CFTR (Homo sapiens, UniProt P13569, DEL508-508)
Construct: host or cells: CFBE41o-, doxycycline-inducible
Sequence (P13569 with tags, fused parts or gaps DEL508-508): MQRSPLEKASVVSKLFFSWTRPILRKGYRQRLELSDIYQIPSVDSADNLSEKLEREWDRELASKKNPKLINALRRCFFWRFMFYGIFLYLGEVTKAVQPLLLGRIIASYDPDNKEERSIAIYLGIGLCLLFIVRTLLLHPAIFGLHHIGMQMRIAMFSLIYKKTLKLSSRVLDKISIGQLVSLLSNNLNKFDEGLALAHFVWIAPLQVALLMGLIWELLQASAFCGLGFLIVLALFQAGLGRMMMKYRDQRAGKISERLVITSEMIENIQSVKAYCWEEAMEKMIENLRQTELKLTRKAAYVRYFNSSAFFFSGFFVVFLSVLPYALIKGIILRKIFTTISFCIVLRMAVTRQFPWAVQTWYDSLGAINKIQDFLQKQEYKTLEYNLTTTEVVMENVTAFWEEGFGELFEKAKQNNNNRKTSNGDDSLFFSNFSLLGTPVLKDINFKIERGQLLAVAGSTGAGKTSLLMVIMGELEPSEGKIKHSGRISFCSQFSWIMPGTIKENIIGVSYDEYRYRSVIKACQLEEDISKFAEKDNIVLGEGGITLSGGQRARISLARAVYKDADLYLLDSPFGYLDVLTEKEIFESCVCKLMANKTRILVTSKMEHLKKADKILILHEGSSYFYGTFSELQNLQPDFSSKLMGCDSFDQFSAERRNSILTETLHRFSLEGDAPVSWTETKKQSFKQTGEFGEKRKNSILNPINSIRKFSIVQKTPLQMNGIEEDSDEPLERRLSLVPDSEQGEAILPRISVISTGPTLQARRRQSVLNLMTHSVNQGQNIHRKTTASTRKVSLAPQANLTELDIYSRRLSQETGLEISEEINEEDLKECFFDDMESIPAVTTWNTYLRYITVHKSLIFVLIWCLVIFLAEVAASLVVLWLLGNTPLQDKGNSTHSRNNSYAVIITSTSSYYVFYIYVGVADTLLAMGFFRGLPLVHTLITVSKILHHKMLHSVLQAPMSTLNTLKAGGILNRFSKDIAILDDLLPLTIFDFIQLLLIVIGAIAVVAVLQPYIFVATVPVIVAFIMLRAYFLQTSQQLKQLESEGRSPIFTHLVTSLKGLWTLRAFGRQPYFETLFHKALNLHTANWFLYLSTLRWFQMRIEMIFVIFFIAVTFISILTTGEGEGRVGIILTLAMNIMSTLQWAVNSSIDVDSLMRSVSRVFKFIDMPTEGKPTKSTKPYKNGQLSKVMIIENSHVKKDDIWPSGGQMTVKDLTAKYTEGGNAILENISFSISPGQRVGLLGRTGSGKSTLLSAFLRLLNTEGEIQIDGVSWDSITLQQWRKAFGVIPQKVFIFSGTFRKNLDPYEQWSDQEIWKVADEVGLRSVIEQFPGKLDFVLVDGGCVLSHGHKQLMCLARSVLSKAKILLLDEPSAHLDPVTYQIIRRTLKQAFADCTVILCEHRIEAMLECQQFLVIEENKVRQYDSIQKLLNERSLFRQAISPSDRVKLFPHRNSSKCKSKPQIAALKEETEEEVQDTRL
Experiment: CFTR cell surface levels using HRP-tagged ΔF508-CFTR expressing CFBE cells, intrinsic corrector capacity
Assay type: cell-based
Settings: HRP-tagged ΔF508-CFTR expressing CFBE cells; intrinsic corrector capacity (no co-corrector); 33° C., 20 hours
Listed next: entries and their corresponding % Activation.
# number only, unit % dropped from output

As a guide, the following entries are already answered.
{"molecule": "COCC(C)N1CCN(c2cc(C(=O)O)nc3c2c(C(C)C)nn3-c2ccc(F)cc2)CC1 (centres unmarked)", "target or system": "ΔF508-CFTR (Homo sapiens, UniProt P13569, DEL508-508)", "% Activation [%]": 157.7}
{"molecule": "O=C(O)c1cc(N2CCC3C(CCN3C3CCOCC3)C2)c2c(C3CCC3)nn(-c3ccc(F)cc3)c2n1 (centres unmarked)", "target or system": "ΔF508-CFTR (Homo sapiens, UniProt P13569, DEL508-508)", "% Activation [%]": 275.8}
{"molecule": "COCC1CCN(c2cc(C(=O)O)nc3c2c(C(C)C)nn3CC(C)C)CC1", "target or system": "ΔF508-CFTR (Homo sapiens, UniProt P13569, DEL508-508)", "% Activation [%]": 88.93}
{"molecule": "CC(C)c1nn(-c2ccc(F)cc2)c2nc(C(=O)O)cc(N3CCN(C(C)(C)C)CC3)c12", "target or system": "ΔF508-CFTR (Homo sapiens, UniProt P13569, DEL508-508)", "% Activation [%]": 115.7}
{"molecule": "COCC1CCN(c2cc(C(=O)O)nc3c2c(C(C)C)nn3-c2ccnc(N3CCOCC3)c2)CC1", "target or system": "ΔF508-CFTR (Homo sapiens, UniProt P13569, DEL508-508)", "% Activation [%]": 232.2}

Entry under test: "COCC1CN(CC2CCN(c3cc(C(=O)O)nc4c3c(C3CCC3)nn4-c3ccccc3)CC2)C1" . Its % Activation was 231.3

Entry under test: "O=C(O)c1cc(O[C@H]2CCOC2)c2c(C3CCC3)nn(-c3ccccc3)c2n1" . Its % Activation was 134.7

Entry under test: "N#CC1CCN(c2ccc(-c3cc(C(=O)O)nc4c3c([C@H]3C[C@@H](F)C3)nn4-c3ccccc3)cn2)CC1" . Its % Activation was 197.97
